Kindly state viability for each of the entries shown.
- test.details: H69AR cell proliferation blockers – human, duplicate replicates, primary screen (AID 580);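 note: 100% = mean luminescence of untreated wells and 0% = no signal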
- particulars: H69AR lung tumor cells viability, ATP luminescence, 72 h; at 10 µM; active compounds read low
Please give a number only; it is taken to be in %.

Assign viability to the following record: "O=c1[nH]c(=O)n(-c2cccc3ccccc23)c(O)c1C=NCCCn1ccnc1" 102

Assign viability to the following record: "O=c1[nH]c(=O)n(-c2ccc(F)cc2)c(O)c1C=Nc1ccccc1N1CCCC1" 61.3

Assign viability to the following record: CC(=O)C1C(=O)NC23CCCCC2C1c1ccccc1O3 (stereo unspecified) 99.3

Assign viability to the following record: "CCCCCCOc1ccc(CN2CCN(C)CC2)cc1" 77.2

Assign viability to the following record: "Cc1ccc2c(c1)[C@@H]1CN(C)CC[C@@H]1N2C(=O)Nc1cccc(C(F)(F)F)c1" 69.9

Assign viability to the following record: "O=c1[nH]c2ccccc2n1CCCN1CCC(n2c(=O)[nH]c3cc(Cl)ccc32)CC1" 76

----------
- test.details: viability of HCT116 without oncogenic beta-catenin – human colon tumor cells, pilot screen (AID 823);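 note: 0% = wells killed by 20 µM Hyamine and 100% = untreated DMSO cell wells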
- particulars: HCT116 beta-catenin knockout viability, CellTiter-Glo, 60 h; at 10 µM; active compounds read low
Results filed as inconclusive are left out.
Kindly state viability for each of the entries shown.
Please give a number only; it is taken to be in %.

Assign viability to the following record: "COc1cccc(OCC(=O)N2CCN(C)CC2)c1" 99.8

Assign viability to the following record: "O=C1CC(=O)N(c2ccc(Cl)cc2Cl)C(=O)N1" 93.2

Assign viability to the following record: Clc1cccc(CN2CCCCC2c2cccnc2)c1 (configuration not stated) 81.9

Assign viability to the following record: "CN1CCN(c2nc3ccccc3c(=O)n2-c2ccccc2)CC1" 98.1

Assign viability to the following record: O=C(CN1CC(c2ccccc2)CC1=O)Nc1cccc(F)c1 (configuration not stated) 98.3

Assign viability to the following record: CCOC(=O)c1c(C)n(Cc2ccccc2)c2ccc(OCC(O)Cn3nc(C)nc3C)cc12 (configuration not stated) 82.7

Assign viability to the following record: COc1cc(CN2CC3CC(C2)c2cccc(=O)n2C3)cc(OC)c1OC (configuration not stated) 104

Assign viability to the following record: "CC(=O)Nc1ccc(OC(=O)c2ccccc2N)cc1" 107

Assign viability to the following record: "O=C(CN1CCOCC1)c1ccc2cc[nH]c2c1" 105

Assign viability to the following record: c1cncc(C2CCCCN2Cc2ccc3c(c2)OCO3)c1 (configuration not stated) 95.2

Assign viability to the following record: O=c1cccc2n1CC1CC2CN(C(c2ccccc2)c2sc3ncnn3c2O)C1 (configuration not stated) 93.8

Assign viability to the following record: O=C1CCCC2=C1C(c1cccnc1)Nc1ccccc1N2 (configuration not stated) 90.8

----------
Kindly state inhibition for each of the entries shown.
- target.entity: Pantothenate synthetase (Mycobacterium tuberculosis (strain ATCC 25618 / H37Rv)) (UniProt P9WIL5)
- Sequence (P9WIL5 whole entry, looked up): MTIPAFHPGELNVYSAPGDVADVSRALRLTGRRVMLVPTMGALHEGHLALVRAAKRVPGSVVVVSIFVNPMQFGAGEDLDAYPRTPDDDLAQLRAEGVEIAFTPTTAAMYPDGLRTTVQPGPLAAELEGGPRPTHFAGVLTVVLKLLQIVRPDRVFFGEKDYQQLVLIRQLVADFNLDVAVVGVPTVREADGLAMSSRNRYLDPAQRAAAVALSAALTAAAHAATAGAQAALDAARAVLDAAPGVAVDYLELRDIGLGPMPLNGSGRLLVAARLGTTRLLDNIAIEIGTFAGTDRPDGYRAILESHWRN
- test.details: Coupled enzyme confirmation of inhibitors against recombinant Mtb PanC (AID 375);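 note: 0% = full reaction with vehicle and 100% = no enzyme background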
- particulars: coupled enzyme assay; at 10 µM, active compounds read high
Please give a number only; it is taken to be in %.

Assign inhibition to the following record: "COc1cc(CC(=O)NCc2ccc3c(c2)OCO3)cc(OC)c1OC" 1

Assign inhibition to the following record: O=C(CSCc1cnn(-c2ccccc2)c1-n1cccc1)NCC1CCCO1 (stereo unspecified) 4

Assign inhibition to the following record: CCCN1C(=O)c2cc(C(=O)O)ccc2C1O (stereo unspecified) 0

Assign inhibition to the following record: O=C(Nc1ccccc1)N1CCC(c2ccccc2)C1 (stereo unspecified) 6

Assign inhibition to the following record: "Cc1ccc(-n2c(-c3ccncc3)nnc2-c2cccs2)cc1" 1

Assign inhibition to the following record: "O=C(Cn1ccc2ccccc2c1=O)NCCC(=O)N1CCN(C(=O)c2ccco2)CC1" 9
